Provenance of the data: the supplement of paper PMC10723795

The following compounds are listed with their measured nucleolar normality score values.
Test system: CHON-002
experimentalDetails: nucleolar normality score relative to DMSO (fraction of DMSO control); higher = more normal nucleoli (less nucleolar stress)
property: nucleolar normality score

INSERT INTO results (compound, measvalue) VALUES
  ('CC(C)C[C@H](NC(=O)[C@H](CCc1ccccc1)NC(=O)CN1CCOCC1)C(=O)N[C@@H](Cc1ccccc1)C(=O)N[C@@H](CC(C)C)C(=O)[C@@]1(C)CO1', 0.453),
  ('C=CCNC1=C2C[C@@H](C)C[C@H](OC)[C@H](O)[C@@H](C)/C=C(\C)[C@H](OC(N)=O)[C@@H](OC)/C=C\C=C(/C)C(=O)NC(=CC1=O)C2=O', 0.408),
  ('Cc1cnc(CNC(=O)c2c(=O)c3ccc(N4CCCN(C)CC4)nc3n3c2sc2ccccc23)cn1', 0.487),
  ('CC(C)n1nc(-c2ccc3oc(N)nc3c2)c2c(N)ncnc21', 0.4),
  ('COc1cccc2c1C(=O)c1c(O)c3c(c(O)c1C2=O)C[C@@](O)(C(=O)CO)C[C@@H]3O[C@H]1C[C@H](N)[C@H](O)[C@H](C)O1', 0.182),
  ('CN1CC[C@H](c2c(O)cc(O)c3c(=O)cc(-c4ccccc4Cl)oc23)[C@H](O)C1', 0.181),
  ('CC(C)c1cc(C(=O)N2Cc3ccc(CN4CCN(C)CC4)cc3C2)c(O)cc1O', 0.383),
  ('CN(C)CCNC(=O)c1cccn2c(=O)c3cc4ccccc4cc3nc12', 0.0829),
  ('COC[C@H](NC(=O)c1cnc(C)s1)C(=O)N[C@@H](COC)C(=O)N[C@@H](Cc1ccccc1)C(=O)[C@@]1(C)CO1', 0.548),
  ('Cc1nc(-c2cn3c(n2)-c2ccc(-c4cnn(C(C)(C)C(N)=O)c4)cc2OCC3)n(C(C)C)n1', 0.444),
  ('CC(C)c1c2cc(-c3ccnc(NC4CCC(NC5CCOCC5)CC4)n3)ccc2nn1C (stereo unspecified)', 0.281);

---

Tested on: BJ5TA
experimentalDetails: nucleolar normality score relative to DMSO (fraction of DMSO control); RPE1 is a non-cancer human cell line; higher = more normal nucleoli (less nucleolar stress)
property: nucleolar normality score

INSERT INTO assay_data (compoundstructure, property, measvalue) VALUES
  ('CC(C)C[C@H](NC(=O)[C@H](CCc1ccccc1)NC(=O)CN1CCOCC1)C(=O)N[C@@H](Cc1ccccc1)C(=O)N[C@@H](CC(C)C)C(=O)[C@@]1(C)CO1', 'nucleolar normality score', 0.328),
  ('COC[C@H](NC(=O)c1cnc(C)s1)C(=O)N[C@@H](COC)C(=O)N[C@@H](Cc1ccccc1)C(=O)[C@@]1(C)CO1', 'nucleolar normality score', 0.449),
  ('CN1CC[C@H](c2c(O)cc(O)c3c(=O)cc(-c4ccccc4Cl)oc23)[C@H](O)C1', 'nucleolar normality score', 0.202),
  ('CCc1cnn2c(NCc3ccc[n+]([O-])c3)cc(N3CCCC[C@H]3CCO)nc12', 'nucleolar normality score', 0.242),
  ('Cc1cnc(CNC(=O)c2c(=O)c3ccc(N4CCCN(C)CC4)nc3n3c2sc2ccccc23)cn1', 'nucleolar normality score', 0.107),
  ('CN(C)CCNC(=O)c1cccn2c(=O)c3cc4ccccc4cc3nc12', 'nucleolar normality score', 0.0738),
  ('Cc1nc(-c2cn3c(n2)-c2ccc(-c4cnn(C(C)(C)C(N)=O)c4)cc2OCC3)n(C(C)C)n1', 'nucleolar normality score', 0.347),
  ('C=CCNC1=C2C[C@@H](C)C[C@H](OC)[C@H](O)[C@@H](C)/C=C(\C)[C@H](OC(N)=O)[C@@H](OC)/C=C\C=C(/C)C(=O)NC(=CC1=O)C2=O', 'nucleolar normality score', 0.306),
  ('CC(C)c1cc(C(=O)N2Cc3ccc(CN4CCN(C)CC4)cc3C2)c(O)cc1O', 'nucleolar normality score', 0.294);
